molecular target: VIM-2 metallo-beta-lactamase (Pseudomonas aeruginosa); experiment: VIM-2 CCF2 hydrolysis inhibition, assay artifact filter – biochemical, FRET readout, CCF2 substrate, artefact control for selective VIM-2 inhibitor project, dose response (AID 1926); details: purified VIM-2, CCF2 FRET substrate hydrolysis
The source made the active and inactive calls.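 How the source made its calls: active means IC50 half-maximal inhibitory concentration at or below 10 µM; inactive means IC50 above 10 µM.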
Thanks in advance; please answer with one of these: t for active, f for inactive

Query :: Outcome? CC(C)(C)c1ccc(COc2ccsc2C(=O)O)cc1
Result :: t

Query :: Check the results log: what was the call for COCC(C)NC(=O)c1cc2cccc([N+](=O)[O-])c2[nH]1 (stereo not drawn) ?
Result :: t

Query :: What was the test verdict on Cc1c(C)c2c(OCC(=O)N3CCC[C@H]3C(=O)O)cc3c(c2oc1=O)CCC(C)(C)O3 ?
Result :: t

Query :: Per the records of this test, what outcome belongs to CCc1cc(=O)oc2c(C)c(OCC(=O)N3CCC[C@@H]3C(=O)O)ccc12 ?
Result :: t

Query :: Please let me know the test result on file for CC1CCCC(C)N1C(=O)CSc1nnc(NC(=O)c2cccs2)s1 (stereo not drawn) .
Result :: t

Query :: Hey, what did the test say about S=c1[nH]nc(-c2ccccc2)n1C1C=CCCC1 (stereo not drawn) ?
Result :: t

Query :: GET /call?item= O=C(CSc1nnc(NC(=O)c2ccccc2F)s1)NCc1ccc(F)cc1 returns the recorded outcome of this test.
Result :: t

Query :: Just curious, what result did CCN(CC)C(=O)CSc1nc2ccc(NC(=O)CSc3nccn3C)cc2s1 get here?
Result :: t

Query :: Kindly provide the recorded test outcome for the following compound: O=C(O)C1Sc2[nH]c(=O)sc2C2c3cc(Cl)ccc3OC(=O)C12 (stereo not drawn)
Result :: f

Query :: Fill in: this test's call for CCCc1cc(=O)oc2c3c(cc(OCC(=O)N[C@@H](C)C(=O)O)c12)OC(C)(C)CC3 is ___
Result :: t

Query :: Tell me the recorded outcome of this test for S=c1[nH]nc(-c2ccccc2)n1Cc1ccccc1 .
Result :: t

Query :: Dear colleague, could you share the recorded outcome for O=Cc1c(NCc2ccc(Cl)cc2)c2ccccc2[nH]c1=O when you have a moment?
Result :: t

Query :: What call does the record list for O=C(O)CC/C(=C\c1cc([N+](=O)[O-])ccc1Cl)c1nc2ccccc2s1 ?
Result :: t

Query :: Status in this test for Cn1ccnc1SCC(=O)Nc1ccc2nc(SCC(=O)NC3CC3)sc2c1 ?
Result :: t

Query :: Returns: the outcome recorded for C=CCn1c(C2CC2)n[nH]c1=S in this assay.
Result :: t

Query :: Given COc1ccccc1-c1n[nH]c(=S)n1Cc1ccco1 , state the outcome it received in this test.
Result :: t

Query :: Can you look up the reported call for O=c1[nH]c(SCc2n[nH]c(=S)n2-c2ccccc2)nc2sc3c(c12)CCC3 for me?
Result :: t

Query :: I'd appreciate the recorded outcome for Cc1n[nH]c(C)c1CCCCOc1ccc([N+](=O)[O-])cc1 from this test.
Result :: t

Query :: Status in this test for S=c1[nH]nc(-c2ccco2)n1-c1cccc2ccccc12 ?
Result :: t

Query :: How was CCCCn1c(-c2nn(C)cc2Cl)n[nH]c1=S classified in this test?
Result :: t

Query :: I would be grateful if you could indicate the recorded call for O=C(O)c1ccccc1Sc1ncnc2sc3c(c12)CCC3 .
Result :: t

Query :: Recorded test call requested for O=C(O)c1ccccc1C(=O)c1cccc2ccccc12
Result :: t

Query :: What was the test verdict on S=c1[nH]nc(-c2ccc3ccccc3n2)n1-c1ccc2c(c1)OCCO2 ?
Result :: t

Values were extracted from PubChem BioAssay AID1926.
